# Lookup of reported viability, T/C keyed by entry
Test system: 126254-015-R-J1-PDC complex spheroid growth, % test/control
Experiment: Anticancer human tumor 126254-015-R-J1-PDC patient-derived soft tissue sarcoma cell line growth inhibition [Asc]
Details: second compound 0.01 µM; first compound 0.316 µM; stronger effect = lower value
Excerpt: Multicellular complex tumor spheroid response to apoptosis pathway targeting inhibitors Alrizomadlin, Pelcitoclax, and Dasminapant in combination with a variety of drugs and investigational agents in selected tumor cell lines […] Compounds. […] If the clinical Cmax for an agent had not been determined, the highest concentration tested was 10 microM. […]
Quick reminder: number only, in %, skip the unit.

C#Cc1c(F)ccc2cc(O)cc(-c3ncc4c(N5CC6CCC(C5)N6)nc(OCC56CCCN5CC(F)C6)nc4c3F)c12 (configuration not stated) + CNC(C)C(=O)NC1CN(S(=O)(=O)c2cccc(S(=O)(=O)N3CCC4CCC(C(=O)NC(c5ccccc5)c5ccccc5)N4C(=O)C(NC(=O)C(C)NC)C3)c2)CCC2CCC(C(=O)NC(c3ccccc3)c3ccccc3)N2C1=O    78.5

Need viability, T/C of O=C(c1ccc(F)c(F)c1Nc1ccc(I)cc1F)N1CC(O)([C@@H]2CCCCN2)C1 + CNC(C)C(=O)NC1CN(S(=O)(=O)c2cccc(S(=O)(=O)N3CCC4CCC(C(=O)NC(c5ccccc5)c5ccccc5)N4C(=O)C(NC(=O)C(C)NC)C3)c2)CCC2CCC(C(=O)NC(c3ccccc3)c3ccccc3)N2C1=O , thanks.
66.9

---

# Lookup of reported viability, T/C keyed by entry
Test system: 126254-015-R-J1-PDC complex spheroid growth, % test/control
Assay: Anticancer human tumor 126254-015-R-J1-PDC cell line growth inhibition [Asc];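 note: spheroids exposed to compound for seven days; 100% = DMSO vehicle control wells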
Settings: second compound 10 µM; first compound 1 µM; stronger effect = lower value
Quick reminder: number only, in %, skip the unit.

Please review the entries below; each comes with its answer.
O=C(c1cc(Cc2n[nH]c(=O)c3ccccc23)ccc1F)N1CCN(C(=O)C2CC2)CC1 + Cc1c(S(C)(=O)=O)c(-c2cc(F)cc(N3CCN(c4ccc(NS(=O)(=O)c5ccc(NC(CCN6CCC(C(=O)OCCCP(=O)(O)O)CC6)CSc6ccccc6)c(S(=O)(=O)C(F)(F)F)c5)cc4)CC3)c2)c(-c2ccc(Cl)cc2)n1C(C)C    70.6
C=C(F)C(=O)N1CCN(c2nc(OCC3CCCN3C)nc3c2CCN(c2cccc4cccc(Cl)c24)C3)CC1CC#N (stereo not drawn) + Cc1c(S(C)(=O)=O)c(-c2cc(F)cc(N3CCN(c4ccc(NS(=O)(=O)c5ccc(NC(CCN6CCC(C(=O)OCCCP(=O)(O)O)CC6)CSc6ccccc6)c(S(=O)(=O)C(F)(F)F)c5)cc4)CC3)c2)c(-c2ccc(Cl)cc2)n1C(C)C    62.4
O=C(c1ccc(F)c(F)c1Nc1ccc(I)cc1F)N1CC(O)([C@@H]2CCCCN2)C1 + Cc1c(S(C)(=O)=O)c(-c2cc(F)cc(N3CCN(c4ccc(NS(=O)(=O)c5ccc(NC(CCN6CCC(C(=O)OCCCP(=O)(O)O)CC6)CSc6ccccc6)c(S(=O)(=O)C(F)(F)F)c5)cc4)CC3)c2)c(-c2ccc(Cl)cc2)n1C(C)C    25.3
CNC(C)C(=O)NC1CN(S(=O)(=O)c2cccc(S(=O)(=O)N3CCC4CCC(C(=O)NC(c5ccccc5)c5ccccc5)N4C(=O)C(NC(=O)C(C)NC)C3)c2)CCC2CCC(C(=O)NC(c3ccccc3)c3ccccc3)N2C1=O (stereo not drawn) + Cc1c(S(C)(=O)=O)c(-c2cc(F)cc(N3CCN(c4ccc(NS(=O)(=O)c5ccc(NC(CCN6CCC(C(=O)OCCCP(=O)(O)O)CC6)CSc6ccccc6)c(S(=O)(=O)C(F)(F)F)c5)cc4)CC3)c2)c(-c2ccc(Cl)cc2)n1C(C)C    27.8

Need viability, T/C of C#Cc1c(F)ccc2cc(O)cc(-c3ncc4c(N5CC6CCC(C5)N6)nc(OCC56CCCN5CC(F)C6)nc4c3F)c12 (stereo not drawn) + Cc1c(S(C)(=O)=O)c(-c2cc(F)cc(N3CCN(c4ccc(NS(=O)(=O)c5ccc(NC(CCN6CCC(C(=O)OCCCP(=O)(O)O)CC6)CSc6ccccc6)c(S(=O)(=O)C(F)(F)F)c5)cc4)CC3)c2)c(-c2ccc(Cl)cc2)n1C(C)C , thanks.
75.5

Need viability, T/C of COc1c(OCCCN2CCOCC2)ccc2c3n(c(=NC(=O)c4cnc(N)nc4)nc12)CCN3 + Cc1c(S(C)(=O)=O)c(-c2cc(F)cc(N3CCN(c4ccc(NS(=O)(=O)c5ccc(NC(CCN6CCC(C(=O)OCCCP(=O)(O)O)CC6)CSc6ccccc6)c(S(=O)(=O)C(F)(F)F)c5)cc4)CC3)c2)c(-c2ccc(Cl)cc2)n1C(C)C , thanks.
7.09

Need viability, T/C of CCN1CCN(Cc2ccc(Nc3ncc(F)c(-c4cc(F)c5nc(C)n(C(C)C)c5c4)n3)nc2)CC1 + Cc1c(S(C)(=O)=O)c(-c2cc(F)cc(N3CCN(c4ccc(NS(=O)(=O)c5ccc(NC(CCN6CCC(C(=O)OCCCP(=O)(O)O)CC6)CSc6ccccc6)c(S(=O)(=O)C(F)(F)F)c5)cc4)CC3)c2)c(-c2ccc(Cl)cc2)n1C(C)C , thanks.
73.8

Need viability, T/C of C=CC(=O)N1CCN(c2nc(=O)n(-c3c(C)ccnc3C(C)C)c3nc(-c4c(O)cccc4F)c(F)cc23)C(C)C1 (stereo not drawn) + Cc1c(S(C)(=O)=O)c(-c2cc(F)cc(N3CCN(c4ccc(NS(=O)(=O)c5ccc(NC(CCN6CCC(C(=O)OCCCP(=O)(O)O)CC6)CSc6ccccc6)c(S(=O)(=O)C(F)(F)F)c5)cc4)CC3)c2)c(-c2ccc(Cl)cc2)n1C(C)C , thanks.
87

---

System: 126254-015-R-J1-PDC complex spheroid growth, % test/control
Assay: Anticancer human tumor 126254-015-R-J1-PDC cell line growth inhibition [Asc];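 note: spheroids exposed to compound for seven days; 100% = DMSO vehicle control wells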
Settings: second compound 1 µM; first compound 0.949 µM; stronger effect = lower value
Quantity Measured: viability, T/C (%)
Quick reminder: number only, in %, skip the unit.

Please review the entries below; each comes with its answer.
CCN1C(C(=O)NC23CCC(C(=O)O)(CC2)CC3)C(c2cccc(Cl)c2F)C2(C(=O)Nc3cc(Cl)ccc32)C12CCCCC2 (centres undefined) + CNC(C)C(=O)NC1CN(S(=O)(=O)c2cccc(S(=O)(=O)N3CCC4CCC(C(=O)NC(c5ccccc5)c5ccccc5)N4C(=O)C(NC(=O)C(C)NC)C3)c2)CCC2CCC(C(=O)NC(c3ccccc3)c3ccccc3)N2C1=O    61.5
Cc1nc(N2CCC3(CC2)COC(C)C3N)c(CO)nc1Sc1ccnc(N)c1Cl (centres undefined) + Cc1c(S(C)(=O)=O)c(-c2cc(F)cc(N3CCN(c4ccc(NS(=O)(=O)c5ccc(NC(CCN6CCC(C(=O)OCCCP(=O)(O)O)CC6)CSc6ccccc6)c(S(=O)(=O)C(F)(F)F)c5)cc4)CC3)c2)c(-c2ccc(Cl)cc2)n1C(C)C    43.2
CCN1C(C(=O)NC23CCC(C(=O)O)(CC2)CC3)C(c2cccc(Cl)c2F)C2(C(=O)Nc3cc(Cl)ccc32)C12CCCCC2 (centres undefined) + Cc1c(S(C)(=O)=O)c(-c2cc(F)cc(N3CCN(c4ccc(NS(=O)(=O)c5ccc(NC(CCN6CCC(C(=O)OCCCP(=O)(O)O)CC6)CSc6ccccc6)c(S(=O)(=O)C(F)(F)F)c5)cc4)CC3)c2)c(-c2ccc(Cl)cc2)n1C(C)C    82.7

Next:
Need viability, T/C of Cc1nc(N2CCC3(CC2)COC(C)C3N)c(CO)nc1Sc1ccnc(N)c1Cl (centres undefined) + CNC(C)C(=O)NC1CN(S(=O)(=O)c2cccc(S(=O)(=O)N3CCC4CCC(C(=O)NC(c5ccccc5)c5ccccc5)N4C(=O)C(NC(=O)C(C)NC)C3)c2)CCC2CCC(C(=O)NC(c3ccccc3)c3ccccc3)N2C1=O , thanks.
30

---

System: 126254-015-R-J1-PDC complex spheroid growth, % test/control
Test: Anticancer human tumor 126254-015-R-J1-PDC cell line growth inhibition [Asc];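 note: spheroids exposed to compound for seven days; 100% = DMSO vehicle control wells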
Conditions: second compound 0.03 µM; first compound 0.0316 µM; stronger effect = lower value
# Lookup of reported viability, T/C keyed by entry
Quick reminder: number only, in %, skip the unit.

NC1CCC(NC2CC2c2ccccc2)CC1 (stereo not given) + CCN1C(C(=O)NC23CCC(C(=O)O)(CC2)CC3)C(c2cccc(Cl)c2F)C2(C(=O)Nc3cc(Cl)ccc32)C12CCCCC2    79.7
Cn1ncnc1[C@H]1c2n[nH]c(=O)c3cc(F)cc(c23)N[C@@H]1c1ccc(F)cc1 + CCN1C(C(=O)NC23CCC(C(=O)O)(CC2)CC3)C(c2cccc(Cl)c2F)C2(C(=O)Nc3cc(Cl)ccc32)C12CCCCC2    83.9
O=C(c1cc(Cc2n[nH]c(=O)c3ccccc23)ccc1F)N1CCN(C(=O)C2CC2)CC1 + CCN1C(C(=O)NC23CCC(C(=O)O)(CC2)CC3)C(c2cccc(Cl)c2F)C2(C(=O)Nc3cc(Cl)ccc32)C12CCCCC2    95.7
O=C(c1ccc(F)c(F)c1Nc1ccc(I)cc1F)N1CC(O)([C@@H]2CCCCN2)C1 + CCN1C(C(=O)NC23CCC(C(=O)O)(CC2)CC3)C(c2cccc(Cl)c2F)C2(C(=O)Nc3cc(Cl)ccc32)C12CCCCC2    97.2
C#Cc1c(F)ccc2cc(O)cc(-c3ncc4c(N5CC6CCC(C5)N6)nc(OCC56CCCN5CC(F)C6)nc4c3F)c12 (stereo not given) + CCN1C(C(=O)NC23CCC(C(=O)O)(CC2)CC3)C(c2cccc(Cl)c2F)C2(C(=O)Nc3cc(Cl)ccc32)C12CCCCC2    96.1
COc1c(OCCCN2CCOCC2)ccc2c3n(c(=NC(=O)c4cnc(N)nc4)nc12)CCN3 + CCN1C(C(=O)NC23CCC(C(=O)O)(CC2)CC3)C(c2cccc(Cl)c2F)C2(C(=O)Nc3cc(Cl)ccc32)C12CCCCC2    56.9

Need viability, T/C of CNC(C)C(=O)NC1CN(S(=O)(=O)c2cccc(S(=O)(=O)N3CCC4CCC(C(=O)NC(c5ccccc5)c5ccccc5)N4C(=O)C(NC(=O)C(C)NC)C3)c2)CCC2CCC(C(=O)NC(c3ccccc3)c3ccccc3)N2C1=O (stereo not given) + CCN1C(C(=O)NC23CCC(C(=O)O)(CC2)CC3)C(c2cccc(Cl)c2F)C2(C(=O)Nc3cc(Cl)ccc32)C12CCCCC2 , thanks.
76.7

Need viability, T/C of C=C(F)C(=O)N1CCN(c2nc(OCC3CCCN3C)nc3c2CCN(c2cccc4cccc(Cl)c24)C3)CC1CC#N (stereo not given) + CCN1C(C(=O)NC23CCC(C(=O)O)(CC2)CC3)C(c2cccc(Cl)c2F)C2(C(=O)Nc3cc(Cl)ccc32)C12CCCCC2 , thanks.
105

Need viability, T/C of CCN1CCN(Cc2ccc(Nc3ncc(F)c(-c4cc(F)c5nc(C)n(C(C)C)c5c4)n3)nc2)CC1 + CCN1C(C(=O)NC23CCC(C(=O)O)(CC2)CC3)C(c2cccc(Cl)c2F)C2(C(=O)Nc3cc(Cl)ccc32)C12CCCCC2 , thanks.
99.5

Need viability, T/C of C=CC(=O)N1CCN(c2nc(=O)n(-c3c(C)ccnc3C(C)C)c3nc(-c4c(O)cccc4F)c(F)cc23)C(C)C1 (stereo not given) + CCN1C(C(=O)NC23CCC(C(=O)O)(CC2)CC3)C(c2cccc(Cl)c2F)C2(C(=O)Nc3cc(Cl)ccc32)C12CCCCC2 , thanks.
94.8
